Tested on: Echinochloa oryzoides (Ard.) Fritsch.
experiment: Postemergence weed control under flooded paddy conditions, ECHORC (Watergrass (Calif.))
Assay type: in vivo
run_conditions: Rate 0.0620 kg/ha, rated three to four weeks after treatment
reported_endpoint: herbicidal effect rating, ECHORC
Write the value as a bare number.

These recorded examples may help you get a feel for the data.
>>> df
                                     smiles                          target_entity  numeric_result
0  CCC(C#N)(CC)c1nsc2ccc(-n3c(=O)cc(C(F)(F)F)n(C)c3=O)cc12  Echinochloa oryzoides (Ard.) Fritsch.             7.0
1  COc1cc2c(cc1-c1nsc3ccc(-n4c(=O)cc(C(F)(F)F)n(C)c4=O)cc13)CCC2  Echinochloa oryzoides (Ard.) Fritsch.             8.0
2  COC(=O)COc1ccc(C)cc1-c1noc2ccc(-n3c(=O)cc(C(F)(F)F)n(C)c3=O)c(Cl)c12  Echinochloa oryzoides (Ard.) Fritsch.             0.0

In: Item under review: CC(C)Oc1cccc(-c2nsc3ccc(-n4c(=O)cc(C(F)(F)F)n(C)c4=O)cc23)c1 . Reported herbicidal effect rating, ECHORC?
Out: 9.0

In: Item under review: COc1ccc(OC)c(-c2nsc3ccc(-n4c(=O)cc(C(F)(F)F)n(C)c4=O)cc23)c1 . Reported herbicidal effect rating, ECHORC?
Out: 9.0

====

Each entry below carries its reported herbicidal effect rating, ORYSAT (rice tolerance).
Test system: Oryza sativa, (L.) Tebonnet
experiment: Rice tolerance to post-transplant applications under flooded paddy conditions (Example 187), ORYSAT (Rice, Tebonnet)
run_conditions: 0.0313 kg/ha, rated three to four weeks after treatment
Write the value as a bare number.

These recorded examples may help you get a feel for the data.
In [3]: df
Out[3]:
                                     smiles  numeric_result
0  Cn1c(C(F)(F)F)cc(=O)n(-c2ccc3snc(COCC(F)F)c3c2)c1=O             4.0
1  C=CCOc1ccc(C)cc1-c1nsc2ccc(-n3c(=O)cc(C(F)(F)F)n(C)c3=O)cc12             0.0
2  CCOCc1nsc2ccc(-n3c(=O)cc(C(F)(F)F)n(C)c3=O)cc12             6.0
3  Cn1c(C(F)(F)F)cc(=O)n(-c2ccc3onc(-c4ccccc4)c3c2)c1=O             4.0
4  Cc1ccc(OCC(=O)OC(C)(C)C)c(-c2nsc3ccc(-n4c(=O)cc(C(F)(F)F)n(C)c4=O)cc23)c1             0.5
5  CCN(CC)c1nsc2ccc(-n3c(=O)cc(C(F)(F)F)n(C)c3=O)cc12             0.0
6  COC(=O)COc1c(C)cc(C)cc1-c1nsc2ccc(-n3c(=O)cc(C(F)(F)F)n(C)c3=O)cc12             3.0

In: Item under review: COc1ccccc1Oc1noc2ccc(-n3c(=O)cc(C(F)(F)F)n(C)c3=O)cc12 . Reported herbicidal effect rating, ORYSAT (rice tolerance)?
Out: 1.0

====

Test system: Sagittaria pygmaea, L.
experiment: Preemergence weed control under flooded paddy conditions, SAGPY (Arrowhead (Pygmaea))
Type: in vivo
run_conditions: 0.2500 kg/ha; preemergence, flooded paddy; rated three to four weeks after treatment
reported_endpoint: SAGPY herbicidal rating
Write the value as a bare number.

These recorded examples may help you get a feel for the data.
In [3]: df
Out[3]:
                                   molecule        reported_endpoint  numeric_result
0  CN(C)S(=O)(=O)NC(=O)c1nsc2ccc(-n3c(=O)cc(C(F)(F)F)n(C)c3=O)cc12  SAGPY herbicidal rating             9.0
1  Cn1c(C(F)(F)F)cc(=O)n(-c2ccc3snc(COC(=O)c4cc(Cl)nc(Cl)c4)c3c2)c1=O  SAGPY herbicidal rating             0.0
2  Cn1c(C(F)(F)F)cc(=O)n(-c2ccc3snc(C(=O)NS(=O)(=O)Cc4cccc(Cl)c4)c3c2)c1=O  SAGPY herbicidal rating             6.0
3  Cn1c(C(F)(F)F)cc(=O)n(-c2ccc3snc(COCOCc4ccccc4)c3c2)c1=O  SAGPY herbicidal rating             6.0
4  COC(=O)COc1cc(Cl)c(C)cc1-c1nsc2ccc(-n3c(=O)cc(C(F)(F)F)n(C)c3=O)cc12  SAGPY herbicidal rating             3.0
5  CC(C)N(C(C)C)S(=O)(=O)NC(=O)C(C)(C)c1nsc2ccc(-n3c(=O)cc(C(F)(F)F)n(C)c3=O)cc12  SAGPY herbicidal rating             7.0

In: Item under review: CC(C)OC(=O)C(C)(C)c1nsc2ccc(-n3c(=O)cc(C(F)(F)F)n(C)c3=O)cc12 . Reported SAGPY herbicidal rating?
Out: 9.0

In: Item under review: COC(=O)C(C)Oc1cc(Cl)c(C)cc1-c1nsc2ccc(-n3c(=O)cc(C(F)(F)F)n(C)c3=O)cc12 (centres unmarked) . Reported SAGPY herbicidal rating?
Out: 2.0
